Target: T1, recombinant mouse ROR1 protein (Acrobiosystems, RO1-M5221) (mouse, UniProt Q9Z139 30-406)
T1 construct: extracellular domain; Bought; also called mouse ROR1 antigen
T1 sequence (Q9Z139 30-406): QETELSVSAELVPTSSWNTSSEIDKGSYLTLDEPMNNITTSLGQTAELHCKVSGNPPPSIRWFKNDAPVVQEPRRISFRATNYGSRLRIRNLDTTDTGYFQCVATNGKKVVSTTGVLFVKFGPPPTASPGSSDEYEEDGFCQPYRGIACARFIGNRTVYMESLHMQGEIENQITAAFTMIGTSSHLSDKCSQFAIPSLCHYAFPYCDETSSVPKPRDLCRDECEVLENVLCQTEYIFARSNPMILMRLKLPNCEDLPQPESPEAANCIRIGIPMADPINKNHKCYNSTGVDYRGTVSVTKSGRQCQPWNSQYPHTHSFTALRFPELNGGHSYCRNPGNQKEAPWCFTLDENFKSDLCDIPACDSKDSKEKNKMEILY
Test: ELISA, recombinant mouse ROR1 protein coated at 1 µg/ml, IgG titrated, HRP anti-Fab detection
measuredParameter: binding result

A2F2 anti-ROR1 IgG antibody (antibody, V domains shown) VH: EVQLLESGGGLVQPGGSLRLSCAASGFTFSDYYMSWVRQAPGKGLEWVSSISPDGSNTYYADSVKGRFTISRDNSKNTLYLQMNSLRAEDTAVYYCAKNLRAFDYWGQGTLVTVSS VL: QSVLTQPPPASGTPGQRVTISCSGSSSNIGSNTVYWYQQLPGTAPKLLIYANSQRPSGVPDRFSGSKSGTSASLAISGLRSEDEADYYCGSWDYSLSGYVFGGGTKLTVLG: binds
C2E3 anti-ROR1 IgG antibody (antibody, V domains shown) VH: EVQLLESGGGLVQPGGSLRLSCAASGFTFSNYAMSWVRQAPGKGLEWVSSISHNSGSTYYADSVKGRFTISRDNSKNTLYLQMNSLRAEDTAVYYCAKFISARKSLGRSYSNGMDVWGQGTLVTVSS VL: QSVLTQPPSASGTPGQRVTISCTGSSSNIGSNDVTWYQQLPGTAPKLLIYADSKRPSGVPDRFSGSKSGTSASLAISGLRSEDEADYYCGTWDYSLSGYVFGGGTKLTVLG: binds
D2B12 anti-ROR1 IgG antibody (antibody, V domains shown) VH: EVQLLESGGGLVQPGGSLRLSCAASGFTFSNYDMSWVRQAPGKGLEWVSSISPSSGSSIYYADSVKGRFTISRDNSKNTLYLQMNSLRAEDTAVYYCAKAPGWCQAPSCYYDNAMDVWGQGTLVTVSS VL: QSVLTQPPSASGTPGQRVTISCSGSSSNIGNNDVSWYQQLPGTAPKLLIYDDSQRPSGVPDRFSGSKSGTSASLAISGLRSEDEADYYCGAWDDSLSGYVFGGGTKLTVLG: binds
